Reference for the values: paper PMC10088587

test: Cytotoxicity assay; assay type: cell-based; details: dog, MDCK cells
Where a name gives a salt, the structure may show the parent alone.
measurement type: EC50 at 48 h (µg/mL)
Record the value in µg/mL, omitting the unit from your answer.

Fill in: EC50 at 48 h of NC12CC3CC(CC(C3)C1)C2 [Ama, amantadine hydrochloride, reference compound] is ___
98.5

---

assay: Critical micelle concentration; format: physicochemical
Short version: CMC (critical micelle concentration) at least 0.5 is Y, less is N.

- mol: "CCCCCCCCCCCCCCCCCC[N+](C)(C)CCCCCCCCCCCC[N+](C)(C)CCCCCCCCCCCCCCCCCC.[Br-].[Br-]"
  category label: "N"
- mol: "CCCCCCCCCCCCCCCC[N+](C)(C)CCCCCCCCCCCC[N+](C)(C)CCCCCCCCCCCCCCCC.[Br-].[Br-]"
  category label: "N"
- mol: "CCCCCCCCCCCCCCCC[N+](C)(C)CCCCCCCCCC[N+](C)(C)CCCCCCCCCCCCCCCC.[Br-].[Br-]"
  category label: "N"

Form field: CMC (critical micelle concentration) at least 0.5? Entry: "CCCCCCCCCCCC[N+](C)(C)CCCCCCCCCC[N+](C)(C)CCCCCCCCCCCC.[Br-].[Br-]"
Y

Form field: CMC (critical micelle concentration) at least 0.5? Entry: "CCCCCCCCCCCCCCCC[N+](C)(C)CCCCCC[N+](C)(C)CCCCCCCCCCCCCCCC.[Br-].[Br-]"
N

Form field: CMC (critical micelle concentration) at least 0.5? Entry: "CCCCCCCCCCCCCCCCCC[N+](C)(C)CCCCCCCCCC[N+](C)(C)CCCCCCCCCCCCCCCCCC.[Br-].[Br-]"
N

Form field: CMC (critical micelle concentration) at least 0.5? Entry: "CCCCCCCCCCCCCCCC[N+](C)(C)Cc1ccc(C[N+](C)(C)CCCCCCCCCCCCCCCC)cc1.[Br-].[Br-]"
N

Form field: CMC (critical micelle concentration) at least 0.5? Entry: "CCCCCCCCCCCC[N+](C)(C)CCCCCC[N+](C)(C)CCCCCCCCCCCC.[Br-].[Br-]"
Y

Form field: CMC (critical micelle concentration) at least 0.5? Entry: "CCCCCCCCCCCC[N+](C)(C)CCOCC[N+](C)(C)CCCCCCCCCCCC.[Br-].[Br-]"
Y

Form field: CMC (critical micelle concentration) at least 0.5? Entry: "CCCCCCCCCCCCCCCCCC[N+](C)(C)Cc1ccc(C[N+](C)(C)CCCCCCCCCCCCCCCCCC)cc1.[Br-].[Br-]"
N

Form field: CMC (critical micelle concentration) at least 0.5? Entry: "CCCCCCCCCCCC[N+](C)(C)CCCNCCC[N+](C)(C)CCCCCCCCCCCC.[Br-].[Br-]"
Y
